Recorded abundance fitness values for a group of variants are listed next.
B1: Chromodomain-helicase-DNA-binding protein 3, residues 374 to 426; numbered along this chain, Q12873 (parent)
chain: YETDHQDYCEVCQQGGEIILCDTCPRAYHLVCLDPELDRAPEGKWSCPHCEKE

# Variants of: B1
# protocol: abundance fitness (aPCA) (normalised: wild type 0, dead -1); higher = more abundant; growth selection in yeast, the domain comes from the species named
# experimental setup: Homo sapiens
No unit in the answer, only the number.

abundance fitness for `V31K` is -0.132

`G16E` yielded abundance fitness of 0.07

Entry `E10R` — recorded abundance fitness = 0.027

Others:
Record `D4H` , field abundance fitness: -0.136

The variant listed as `E2I` shows abundance fitness equal to 0.419

Form: variant = `R39M` ; abundance fitness = -0.009
